- assay target: T1, human wild-type EGFR protein on the cell surface (human, UniProt P00533 25-1210)
- T1 construct: whole, on cells; Endogenous on A431, HEB, U87MG cells and normal human primary hepatocytes; transfected on CHOk1-EGFR cells; The cell is named under assay; also called A431; HEB
- protocol description: FACS on CHOk1-EGFR cells
Quick reference: Maximum mean fluorescence intensity of the listed items.
Please reply with the bare figure in MFI and do not write the unit itself.

c75G7C6-2 (antibody, human IgG1, V domains shown, Chimeric 75G7C6 with NG of heavy chain CDR2 mutated to QG; also called c754G7C6-2; mutant chimeric antibody NG/QG) VH: EVQLQQSGPELVKPGASVKIPCKASGYTFTDYNMDWVKQSHGKSLEWIGDINPNQGDTIYNQKFKGKATLTVDKSSSTAYMELRSLTSEDTAVYYCARGDYDGYYPVYYAMDYWGQGTSVTVSS VL: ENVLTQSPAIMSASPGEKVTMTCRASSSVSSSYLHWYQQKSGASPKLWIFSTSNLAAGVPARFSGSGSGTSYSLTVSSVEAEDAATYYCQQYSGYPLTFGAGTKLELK: 130000
c75G7C6-1 (antibody, human IgG1, V domains shown, Chimeric 75G7C6 with NG of heavy chain CDR2 mutated to NA; also called c754G7C6-1; mutant chimeric antibody NG/NA) VH: EVQLQQSGPELVKPGASVKIPCKASGYTFTDYNMDWVKQSHGKSLEWIGDINPNNADTIYNQKFKGKATLTVDKSSSTAYMELRSLTSEDTAVYYCARGDYDGYYPVYYAMDYWGQGTSVTVSS VL: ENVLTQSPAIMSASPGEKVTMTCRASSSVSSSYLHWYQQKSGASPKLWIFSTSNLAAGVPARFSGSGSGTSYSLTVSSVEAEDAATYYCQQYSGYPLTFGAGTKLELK: 134000
c75G7C6-4 (antibody, human IgG1, V domains shown, Chimeric 75G7C6 with DG of heavy chain CDR3 mutated to SG; Human IgG1/kappa; also called mutant chimeric antibody DG/SG) VH: EVQLQQSGPELVKPGASVKIPCKASGYTFTDYNMDWVKQSHGKSLEWIGDINPNNGDTIYNQKFKGKATLTVDKSSSTAYMELRSLTSEDTAVYYCARGDYSGYYPVYYAMDYWGQGTSVTVSS VL: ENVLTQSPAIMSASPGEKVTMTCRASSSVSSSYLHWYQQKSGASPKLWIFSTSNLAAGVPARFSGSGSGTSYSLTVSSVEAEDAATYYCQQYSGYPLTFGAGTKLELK: 8970

Now for the binder whose Maximum mean fluorescence intensity we want.
// field: Maximum mean fluorescence intensity; key: c75G7C6-3 (antibody, human IgG1, V domains shown, Chimeric 75G7C6 with DG of heavy chain CDR3 mutated to EG; Human IgG1/kappa; also called mutant chimeric antibody DG/EG) VH: EVQLQQSGPELVKPGASVKIPCKASGYTFTDYNMDWVKQSHGKSLEWIGDINPNNGDTIYNQKFKGKATLTVDKSSSTAYMELRSLTSEDTAVYYCARGDYEGYYPVYYAMDYWGQGTSVTVSS VL: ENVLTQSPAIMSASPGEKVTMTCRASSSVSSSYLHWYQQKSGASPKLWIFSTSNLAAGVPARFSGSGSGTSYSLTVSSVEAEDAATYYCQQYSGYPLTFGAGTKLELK ; value = 84700
